The origin of these recorded values is ChEMBL document CHEMBL4004878.

Test system: Staphylococcus aureus
Experiment: Bacteriostatic activity against methicillin-resistant Staphylococcus aureus PU32 expressing inducible ermA after 20 hrs by two-fold microbroth dilution method
Assay type: functional
Details: PU32, 20 h
Please respond with reported MIC for every item in the list.
The reply should contain only the number, in µg/mL.

What value of MIC has been reported for the following compound? CC[C@H]1OC(=O)[C@@](C)(F)C(=O)[C@H](C)[C@@H](O[C@@H]2O[C@H](C)C[C@H](N(C)C)[C@H]2O)[C@](C)(OC)C[C@@H](C)/C(=N\OCC#Cc2cncc3ccccc23)[C@H](C)[C@H]2OC(=O)O[C@@]21C
1

Same again, this time with CC[C@H]1OC(=O)[C@H](C)[C@@H](OC(=O)Cc2ccccn2)[C@H](C)[C@@H](O[C@@H]2O[C@H](C)C[C@H](N(C)C)[C@H]2O)[C@](C)(OC)C[C@@H](C)/C(=N\OC/C=C/c2cccnc2)[C@H](C)[C@H]2OC(=O)O[C@@]21C
256

Also need CC[C@H]1OC(=O)[C@@](C)(F)C(=O)[C@H](C)[C@@H](O[C@@H]2O[C@H](C)C[C@H](N(C)C)[C@H]2O)[C@](C)(OC)C[C@@H](C)/C(=N\OC/C=C/c2cncc(C(N)=O)c2)[C@H](C)[C@H]2OC(=O)O[C@@]21C , thanks.
1

Note, next up: C=CCN(C)[C@H]1C[C@@H](C)O[C@@H](O[C@@H]2[C@@H](C)C(=O)[C@@H](C)C(=O)O[C@H](CC)[C@@]3(C)OC(=O)O[C@@H]3[C@@H](C)/C(=N/OC/C=C/c3cnc4ccccc4c3)[C@H](C)C[C@@]2(C)OC)[C@@H]1O
2
